Test system: 695427-040-R-J1-PDC complex spheroid viability
Assay: Anticancer human tumor 695427-040-R-J1-PDC patient-derived colon adenocarcinoma cell line growth inhibition [RAS]
Conditions: second compound 0.003 µM; first compound 0.1 µM; stronger effect = lower value
Examples of molecules with documented viability, T/C follow.

molecule	measurement
CCC(CC)c1cc(NC2CCC(N)C2)n2nccc2n1 (configuration not stated) + CCn1c(-c2cccnc2C(C)OC)c2c3cc(ccc31)N1CCOC(CC(NC(=O)C(C(C)C)N(C)C(=O)C3(F)CCN(C(=O)C#CC(C)(C)N(C)C)CC3)C(=O)N3CCCC(N3)C(=O)OCC(C)(C)C2)C1	88.4%

Fill in the recorded viability, T/C for this molecule, with 695427-040-R-J1-PDC complex spheroid viability as test system: Nc1ccn(C2OC(CO)C(O)C2(F)F)c(=O)n1 (configuration not stated) + CCn1c(-c2cccnc2C(C)OC)c2c3cc(ccc31)N1CCOC(CC(NC(=O)C(C(C)C)N(C)C(=O)C3(F)CCN(C(=O)C#CC(C)(C)N(C)C)CC3)C(=O)N3CCCC(N3)C(=O)OCC(C)(C)C2)C1 71%

---

Tested on: 695427-040-R-J1-PDC complex spheroid viability
Assay: Anticancer human tumor 695427-040-R-J1-PDC cell line growth inhibition [RAS];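 also: viability read after seven days of drug exposure; 100% = DMSO vehicle control viability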
Details: second compound 0.1 µM; first compound 0.316 µM; stronger effect = lower value
Recorded viability, T/C values for a group of compounds are listed next.

compound	measurement
CC(C)NCC(C(=O)N1CCN(c2ncnc3c2C(C)CC3O)CC1)c1ccc(Cl)cc1 (stereo not drawn) + C#Cc1c(F)ccc2cc(O)cc(-c3ncc4c(N5CC6CCC(C5)N6)nc(OCC56CCCN5CC(F)C6)nc4c3F)c12	83.7%
Cc1nc(N2CCC3(CC2)COC(C)C3N)c(CO)nc1Sc1ccnc(N)c1Cl (stereo not drawn) + C#Cc1c(F)ccc2cc(O)cc(-c3ncc4c(N5CC6CCC(C5)N6)nc(OCC56CCCN5CC(F)C6)nc4c3F)c12	79.2%

Now turn to the next compound.
For the compound CCN1CCN(Cc2ccc(Nc3ncc(F)c(-c4cc(F)c5nc(C)n(C(C)C)c5c4)n3)nc2)CC1 + C=CC(=O)N1CCN(c2nc(OCC3CCCN3C)nc3c(F)c(-c4nc(N)cc(C)c4C(F)(F)F)c(Cl)cc23)C(C)C1 , what viability, T/C is on record? 107%

---

Tested on: 695427-040-R-J1-PDC complex spheroid viability
Experiment: Anticancer human tumor 695427-040-R-J1-PDC cell line growth inhibition [RAS];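 also: viability read after seven days of drug exposure; 100% = DMSO vehicle control viability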
Conditions: second compound 0.0316 µM; first compound 0.0316 µM; stronger effect = lower value
readout: viability, T/C (%)
// note: answer is a bare numeric in %

Worked cases, answers included:
molecule	tgt	reading.unit	viability, T/C
O=C(c1ccc(F)c(F)c1Nc1ccc(I)cc1F)N1CC(O)([C@@H]2CCCCN2)C1 + C=CC(=O)N1CCN(c2nc(OCC3CCCN3C)nc3c(F)c(-c4nc(N)cc(C)c4C(F)(F)F)c(Cl)cc23)C(C)C1	695427-040-R-J1-PDC complex spheroid viability	%	58
CC1(O)CCCC1n1c(=O)c(C(F)F)cc2cnc(NC3CCN(S(C)(=O)=O)CC3)nc21 (centres undefined) + C=CC(=O)N1CCN(c2nc(OCC3CCCN3C)nc3c(F)c(-c4nc(N)cc(C)c4C(F)(F)F)c(Cl)cc23)C(C)C1	695427-040-R-J1-PDC complex spheroid viability	%	99.5
NC1c2ccccc2OC12CCN(c1cnc3c(N4CCCc5ncccc54)n[nH]c3n1)CC2 (centres undefined) + C#Cc1c(F)ccc2cc(O)cc(-c3ncc4c(N5CC6CCC(C5)N6)nc(OCC56CCCN5CC(F)C6)nc4c3F)c12	695427-040-R-J1-PDC complex spheroid viability	%	69.6
CCC(CC)c1cc(NC2CCC(N)C2)n2nccc2n1 (centres undefined) + C#Cc1c(F)ccc2cc(O)cc(-c3ncc4c(N5CC6CCC(C5)N6)nc(OCC56CCCN5CC(F)C6)nc4c3F)c12	695427-040-R-J1-PDC complex spheroid viability	%	102
CC(=O)OC12COC1CC(O)C1(C)C(=O)C(O)C3=C(C)C(OC(=O)C(O)C(NC(=O)OC(C)(C)C)c4ccccc4)CC(O)(C(OC(=O)c4ccccc4)C21)C3(C)C (centres undefined) + C=CC(=O)N1CCN(c2nc(OCC3CCCN3C)nc3c(F)c(-c4nc(N)cc(C)c4C(F)(F)F)c(Cl)cc23)C(C)C1	695427-040-R-J1-PDC complex spheroid viability	%	71

Any idea what viability, T/C was measured for C=CC(=O)N1CCN(c2nc(OCC3CCCN3C)nc3c(F)c(-c4nc(N)cc(C)c4C(F)(F)F)c(Cl)cc23)C(C)C1 (centres undefined) + C#Cc1c(F)ccc2cc(O)cc(-c3ncc4c(N5CC6CCC(C5)N6)nc(OCC56CCCN5CC(F)C6)nc4c3F)c12 ? 96.7

Request the reported viability, T/C associated with C=CC(=O)Nc1cc(Nc2nccc(-c3cn(C)c4ccccc34)n2)c(OC)cc1N(C)CCN(C)C + C=CC(=O)N1CCN(c2nc(OCC3CCCN3C)nc3c(F)c(-c4nc(N)cc(C)c4C(F)(F)F)c(Cl)cc23)C(C)C1 83.8

# viability, T/C lookup, item C[C@@H](NC(=O)c1ncnc(N)c1Cl)c1ncc(C(=O)Nc2cc(C(F)(F)F)c(Cl)cn2)s1 + C#Cc1c(F)ccc2cc(O)cc(-c3ncc4c(N5CC6CCC(C5)N6)nc(OCC56CCCN5CC(F)C6)nc4c3F)c12 99.8

Recorded viability, T/C for C=CC(=O)Nc1cc(Nc2nccc(-c3cn(C)c4ccccc34)n2)c(OC)cc1N(C)CCN(C)C + C#Cc1c(F)ccc2cc(O)cc(-c3ncc4c(N5CC6CCC(C5)N6)nc(OCC56CCCN5CC(F)C6)nc4c3F)c12 , please? 92.3

Request the reported viability, T/C associated with CC(C)NCC(C(=O)N1CCN(c2ncnc3c2C(C)CC3O)CC1)c1ccc(Cl)cc1 (centres undefined) + C=CC(=O)N1CCN(c2nc(OCC3CCCN3C)nc3c(F)c(-c4nc(N)cc(C)c4C(F)(F)F)c(Cl)cc23)C(C)C1 109

Item under review: Nc1ccn(C2OC(CO)C(O)C2(F)F)c(=O)n1 (centres undefined) + C#Cc1c(F)ccc2cc(O)cc(-c3ncc4c(N5CC6CCC(C5)N6)nc(OCC56CCCN5CC(F)C6)nc4c3F)c12 . Reported viability, T/C? 75

Reported viability, T/C for CC(C)n1nc(-c2ccc3oc(N)nc3c2)c2c(N)ncnc21 + C#Cc1c(F)ccc2cc(O)cc(-c3ncc4c(N5CC6CCC(C5)N6)nc(OCC56CCCN5CC(F)C6)nc4c3F)c12 : what is it? 70.3

Cited source for all entries: PubChem BioAssay AID2060888
